Source listed as patent US20230203177A1.

# assayTarget: human CD40 on primary human tonsillar B cells (human, UniProt P25942 21-277)
# Sequence (P25942 21-277 limits assumed): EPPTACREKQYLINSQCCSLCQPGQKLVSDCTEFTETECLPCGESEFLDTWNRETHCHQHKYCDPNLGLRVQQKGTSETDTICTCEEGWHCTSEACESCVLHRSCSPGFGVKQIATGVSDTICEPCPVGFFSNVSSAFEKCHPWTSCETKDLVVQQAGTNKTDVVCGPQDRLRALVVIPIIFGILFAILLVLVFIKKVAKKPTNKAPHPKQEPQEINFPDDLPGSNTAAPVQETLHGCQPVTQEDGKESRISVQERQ
# testDescription: cell-based or functional assay
experimentalEndpoint: IC50, inhibition of tonsillar human B cell proliferation stimulated by IZ-hCD40L trimer

M38 (HC-K12V,K19S,K23A / LC-K45E) (antibody, human IgG1, kappa, V domains shown, IgG1-P238K; also called HC6/LC3) VH: QVQLVQSGAEVVKPGSSVSVSCAASGYAFTSYWMHWVRQAPGQGLEWMGQINPTTGRSQYNEKFKTRVTITADKSTSTAYMELSSLRSEDTAVYYCARWGLQPFAYWGQGTLVTVSS VL: DIQMTQSPSFLSASVGDRVTITCKASQDVSTAVAWYQQKPGKAPELLIYSASYRYTGVPSRFSGSGSGTDFTLTISSLQPEDFATYYCQQHYSTPWTFGGGTKVEIKR
7.2 ng/mL

Query: Fill in the blank: the reported IC50, inhibition of tonsillar human B cell proliferation stimulated by IZ-hCD40L trimer of M63 (HC-R67Q / LC-K45Q,R54Q,R61Q) (antibody, human IgG1, kappa, V domains shown, IgG1-P238K; also called HC15/LC4) VH: QVQLVQSGAEVKKPGSSVKVSCKASGYAFTSYWMHWVRQAPGQGLEWMGQINPTTGRSQYNEKFKTQVTITADKSTSTAYMELSSLRSEDTAVYYCARWGLQPFAYWGQGTLVTVSS VL: DIQMTQSPSFLSASVGDRVTITCKASQDVSTAVAWYQQKPGKAPQLLIYSASYQYTGVPSQFSGSGSGTDFTLTISSLQPEDFATYYCQQHYSTPWTFGGGTKVEIKR is ____.
Reply: 5.7 ng/mL

Query: What do you get for M47 (HC-R67Q / LC-K45E) (antibody, human IgG1, kappa, V domains shown, IgG1-P238K; also called HC15/LC3) VH: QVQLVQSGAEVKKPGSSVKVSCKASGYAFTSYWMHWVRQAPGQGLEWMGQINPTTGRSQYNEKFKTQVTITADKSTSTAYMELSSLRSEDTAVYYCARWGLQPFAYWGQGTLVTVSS VL: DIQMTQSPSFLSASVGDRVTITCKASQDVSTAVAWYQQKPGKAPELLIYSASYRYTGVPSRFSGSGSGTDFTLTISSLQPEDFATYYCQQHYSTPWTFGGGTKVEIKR ?
Reply: 0.4 ng/mL
